Molecular target: Cytochrome P450 3A4 (Homo sapiens) (UniProt P08684)
Sequence (P08684 whole entry, looked up): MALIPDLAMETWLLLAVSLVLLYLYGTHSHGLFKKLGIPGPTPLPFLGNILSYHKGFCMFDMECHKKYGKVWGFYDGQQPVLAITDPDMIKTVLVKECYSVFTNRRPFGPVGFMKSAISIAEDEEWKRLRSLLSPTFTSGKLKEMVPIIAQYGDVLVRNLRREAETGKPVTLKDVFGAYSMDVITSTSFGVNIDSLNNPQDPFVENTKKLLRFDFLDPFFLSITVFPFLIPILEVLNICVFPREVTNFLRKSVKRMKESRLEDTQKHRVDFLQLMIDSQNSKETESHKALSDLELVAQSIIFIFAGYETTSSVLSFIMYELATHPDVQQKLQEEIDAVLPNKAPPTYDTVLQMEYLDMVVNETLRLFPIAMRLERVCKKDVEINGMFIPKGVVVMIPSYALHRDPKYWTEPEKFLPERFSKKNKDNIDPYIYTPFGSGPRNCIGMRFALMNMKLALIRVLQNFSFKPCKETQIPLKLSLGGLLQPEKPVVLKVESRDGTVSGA
Experiment: Cytochrome panel assay with activity outcomes; also: % is scaled to controls: 0 for no effect and ±100 for the full control effect
Settings: recombinant CYP, pro-luciferin dealkylation, luminescence, p450-cyp3a4; series mostly up to 57.1 µM
Hit rate of the full screen: of about 16,000 compounds, about 5,100 (32%) were called active. Roughly 25% stayed inconclusive and do not appear here. This is one part of the list.
readout kind: activity, negative = inhibition

>>> test_value("C[C@](N)(CCP(=O)(O)O)C(=O)O")
"inactive"
>>> test_value("CN(C)CS/C(N)=N/[C@H](O)C(Cl)(Cl)Cl")
"-7.61% [at 11.4 µM] (inactive)"
>>> test_value("O=C(C[n+]1ccc2ccccc2c1)c1ccc2ccc3ccccc3c2c1")
"-29.1% [at 11.4 µM] (inactive)"
>>> test_value("CN(C)C(=O)Oc1ccc[n+](C)c1")
"inactive"

Could you now consider this next molecule?
### Prompt For "CC(=O)O[C@@H]1CN2CCC1CC2" , what is its reported activity, negative = inhibition?
### Response inactive

* * *

Biological target: Cytochrome P450 3A4 (Homo sapiens)
Experiment: Cytochrome panel assay with activity outcomes; also: % is scaled to controls: 0 for no effect and ±100 for the full control effect
Conditions: recombinant CYP, pro-luciferin dealkylation, luminescence, p450-cyp3a4; series mostly up to 57.1 µM
Among all 16,000 compounds or so, about 5,100 (32%) were called active. Roughly 25% stayed inconclusive and do not appear here. Some of the results follow.
readout kind: activity, negative = inhibition

>>> test_value("CC(=O)OC1=CC2=CC[C@H]3[C@H]4CCC(=O)[C@@]4(C)CC(=O)[C@]3(S)[C@]2(C)CC1")
"-29.7% [at 11.4 µM] (inactive)"
>>> test_value("Cc1cc[c]([Sb]2[O][C@H]([C@H](O)[C@H](O)C(=O)O)[C@@H](CO)[O]2)cc1")
"0.934% [at 11.4 µM] (inactive)"
>>> test_value("C[C@H](NC(C)(C)C)C(=O)c1cccc(Cl)c1")
"inactive"
>>> test_value("O=C(O)c1cc(N=Nc2ccc([As](=O)(O)O)cc2)ccc1O")
"1.38% [at 11.4 µM] (inactive)"
>>> test_value("CC(=O)OC1N=C(c2ccccc2)c2cc(Br)ccc2N(C)C1=O (centres undefined)")
"inactive"

### Prompt For "N[C@@H](Cn1ccc(=O)n(Cc2ccc(C(=O)O)cc2)c1=O)C(=O)O" , what is its reported activity, negative = inhibition?
### Response inactive

### Prompt For "COc1cc2c3cc1Oc1cc(ccc1O)C[C@@H]1c4c(cc(OC)c(O)c4Oc4cccc(c4)C[C@H]3N(C)CC2)CC[N+]1(C)C" , what is its reported activity, negative = inhibition?
### Response inactive

### Prompt For "CN(C)C=C1C(=O)N(C2CCCCC2)C(=O)N(C2CCCCC2)C1=O" , what is its reported activity, negative = inhibition?
### Response inactive

### Prompt For "CCOC(=O)c1ncn2c1[C@H]1CCCN1C(=O)c1cc(OC)ccc1-2" , what is its reported activity, negative = inhibition?
### Response inactive

* * *

Biological target: Cytochrome P450 3A4 (Homo sapiens) (UniProt P08684)
Assay: Cytochrome panel assay with activity outcomes; also: % is scaled to controls: 0 for no effect and ±100 for the full control effect
Details: recombinant CYP, pro-luciferin dealkylation, luminescence, p450-cyp3a4; series mostly up to 57.1 µM
Protocol: The P450 gene superfamily is involved in the metabolism and clearance of xenobiotics. This assay used various human CYP P450 isozymes to measure the dealkylation of various pro-luciferin substrates to luciferin. The luciferin is then measured by luminescence after the addition of a luciferase detection reagent. […] Inhibitors and some substrates limit the production of luciferin, and decrease measured luminescence. […] 8, Detection, 1 sec, ViewLux luminescent read […]
Out of some 16,000 compounds screened, about 5,100 (32%) were called active. About 25% were inconclusive and are not listed. The list shows a part of the results.
readout kind: activity, negative = inhibition

Examples from the recorded data:
>>> test_value("CCC1(C)CC(=O)NC(=O)C1")
"inactive"
>>> test_value("O=C1C=CC(=O)c2c1ccc1c2ccc2ccccc21")
"inactive"
>>> test_value("O=C(O)C[C@H]1NCc2cc3ccccc3nc21")
"-6.42% [at 11.4 µM] (inactive)"
>>> test_value("O=C(Nc1ccc(F)cc1F)c1cccnc1Oc1cccc(C(F)(F)F)c1")
"inactive"
>>> test_value("O=C(O)C(C(=O)O)P(=S)(S)c1ccccc1 (configuration not stated)")
"8.13% [at 11.4 µM] (inactive)"
>>> test_value("CNCCc1ccc(O)c(O)c1")
"inactive"
>>> test_value("Cn1c(=O)c2[nH]cnc2n(C)c1=O")
"inactive"
>>> test_value("CCN1C[C@@]2(COC)CC[C@H](O)[C@@]34[C@@H]2C[C@@H]([C@@H]13)[C@]1(O)C[C@@H](OC)C2C[C@H]4[C@H]1[C@H]2OC(C)=O")
"inactive"

Could you now consider this next molecule?
### Prompt For "CNCC/C=C\c1cccnc1" , what is its reported activity, negative = inhibition?
### Response inactive

* * *

Target: Cytochrome P450 3A4 (Homo sapiens)
Test: Cytochrome panel assay with activity outcomes; also: % is scaled to controls: 0 for no effect and ±100 for the full control effect
Conditions: recombinant CYP, pro-luciferin dealkylation, luminescence, p450-cyp3a4; series mostly up to 57.1 µM
The whole screen tested about 16,000 compounds, of which about 5,100 (32%) were called active. Not shown: some 25% with an inconclusive outcome. The list shows a part of the results.
readout kind: activity, negative = inhibition

>>> test_value("OC(c1ccccc1)(c1ccccc1)C1CCNCC1")
"inactive"
>>> test_value("CN1CCN(C(=O)O[C@@H]2c3nccnc3C(=O)N2c2ccc(Cl)cn2)CC1")
"inactive"
>>> test_value("CC[C@H]1CN2CCc3cc(OC)c(OC)cc3[C@H]2C[C@@H]1C[C@H]1NCCc2c1[nH]c1ccc(O)cc21")
"-8.94% [at 11.4 µM] (inactive)"
>>> test_value("C[C@H](Br)C(=O)c1ccc2cc(Br)c3ccccc3c2c1")
"-23.5% [at 11.4 µM] (inactive)"
>>> test_value("C[N+]1(C)[C@@H]2CC[C@H]1CC(OC(=O)[C@@H](CO)c1ccccc1)C2 (some centres undefined)")
"inactive"
>>> test_value("CC[N+](C)(C)c1cccc(O)c1")
"inactive"
>>> test_value("C/C(=C\\C=C/[C@@H](C)C(=O)O)[C@H]1CN[C@H](C(=O)O)[C@@H]1CC(=O)O")
"inactive"
>>> test_value("CC(=O)c1ccc2c(c1)N(CCCN(C)C)c1ccccc1S2")
"inactive"

### Prompt For "CCn1cc(C(=O)O)c(=O)c2cc3c(cc21)OCO3" , what is its reported activity, negative = inhibition?
### Response inactive

### Prompt For "Cc1nc2ccccc2cc1C[N+]12CN3CN(CN(C3)C1)C2" , what is its reported activity, negative = inhibition?
### Response -6.46% [at 11.4 µM] (inactive)

### Prompt For "OCc1cnc[nH]1" , what is its reported activity, negative = inhibition?
### Response inactive

### Prompt For "NC(N)=NN=Cc1c(Cl)cccc1Cl" , what is its reported activity, negative = inhibition?
### Response inactive

### Prompt For C[C@@H]1[C@@H](C)N1C[C@H](O)Cn1ccnc1[N+](=O)[O-] (some centres undefined) , what is its reported activity, negative = inhibition?
### Response -14.6% [at 11.4 µM] (inactive)

* * *

Target: Cytochrome P450 3A4 (Homo sapiens)
Experiment: Cytochrome panel assay with activity outcomes; also: % is scaled to controls: 0 for no effect and ±100 for the full control effect
Details: recombinant CYP, pro-luciferin dealkylation, luminescence, p450-cyp3a4; series mostly up to 57.1 µM
Description: The P450 gene superfamily is involved in the metabolism and clearance of xenobiotics. This assay used various human CYP P450 isozymes to measure the dealkylation of various pro-luciferin substrates to luciferin. The luciferin is then measured by luminescence after the addition of a luciferase detection reagent. […] Inhibitors and some substrates limit the production of luciferin, and decrease measured luminescence. […] 8, Detection, 1 sec, ViewLux luminescent read […]
The whole screen tested about 16,000 compounds, of which about 5,100 (32%) were called active. Another 25% or so got no clear call; they are omitted. Some of the results follow.
readout kind: activity, negative = inhibition

Examples from the recorded data:
>>> test_value("C[C@H](N)Cc1c[nH]c2ccc(O)cc12")
"inactive"
>>> test_value("CN1CCN(c2ccc3ccccc3n2)CC1")
"inactive"
>>> test_value("CCN=C=NCCCN(C)C")
"0.783% [at 11.4 µM] (inactive)"
>>> test_value("Cc1nc(N)sc1CCN")
"inactive"
>>> test_value("NC[C@H](O)c1ccc(O)cc1")
"inactive"
>>> test_value("CN(C)CCN(C)CCc1ccc(Cl)c(Cl)c1")
"inactive"
>>> test_value("CC(=O)Nc1ccccc1C(=O)OCC(=O)c1ccc2ccccc2c1")
"inactive"
>>> test_value("COc1ccc2cc1Oc1ccc(cc1)C[C@H]1c3cc(c(OC)cc3CCN1C)Oc1c(OC)c(OC)cc3c1[C@@H](C2)N(C)CC3")
"-2.4% [at 11.4 µM] (inactive)"
>>> test_value("OC(c1ccccc1)(c1ccccc1)C1CCCN1 (stereo not drawn)")
"-2.76% [at 2.29 µM] (inactive)"
>>> test_value("CS(=N)(=O)CC[C@H](N)P(=O)(O)O (stereo partly drawn)")
"1.43% [at 11.4 µM] (inactive)"

### Prompt For CC1=C(C)[N+](=O)C2(O)CCCCC2(C)N1[O-] (stereo not drawn) , what is its reported activity, negative = inhibition?
### Response inactive

### Prompt For C[C@]12CCC3c4ccc(OCC(=O)O)cc4CCC3C1CCC2=O (stereo partly drawn) , what is its reported activity, negative = inhibition?
### Response -8.48% [at 11.4 µM] (inactive)

### Prompt For "NCCc1c[nH]c2ccc(O)cc12" , what is its reported activity, negative = inhibition?
### Response inactive
